# Tested on: 556581-035-R-J1-PDC spheroids with HUVEC/MSC, viability;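 also: spheroids exposed to compounds for 7 days before readout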
# method: Anticancer human tumor 556581-035-R-J1-PDC patient-derived ovarian carcinoma cell line growth inhibition [IpAb]
# test-settings: second compound 1 µM; first compound 0.03 µM; hits give low values
viability, T/C overview
Give a bare numeral; the unit % is implied.

1) CC(C)(C)c1cnc(CSc2cnc(NC(=O)C3CCNCC3)s2)o1 + CC(C)NCC(C(=O)N1CCN(c2ncnc3c2C(C)CC3O)CC1)c1ccc(Cl)cc1: 65.4
2) CC(=O)c1c(C)c2cnc(Nc3ccc(N4CCNCC4)cn3)nc2n(C2CCCC2)c1=O + CC(C)NCC(C(=O)N1CCN(c2ncnc3c2C(C)CC3O)CC1)c1ccc(Cl)cc1: 56.4
3) Cn1cnc2c(F)c(Nc3ccc(Br)cc3Cl)c(C(=O)NOCCO)cc21 + CCN1CCN(Cc2ccc(Nc3ncc(F)c(-c4cc(F)c5nc(C)n(C(C)C)c5c4)n3)nc2)CC1: 62

The observed viability, T/C for Cn1cnc2c(F)c(Nc3ccc(Br)cc3Cl)c(C(=O)NOCCO)cc21 + CC(C)NCC(C(=O)N1CCN(c2ncnc3c2C(C)CC3O)CC1)c1ccc(Cl)cc1 when tested with 556581-035-R-J1-PDC spheroids with HUVEC/MSC, viability stands at 55.6

The observed viability, T/C for CC(=O)c1c(C)c2cnc(Nc3ccc(N4CCNCC4)cn3)nc2n(C2CCCC2)c1=O + CCN1CCN(Cc2ccc(Nc3ncc(F)c(-c4cc(F)c5nc(C)n(C(C)C)c5c4)n3)nc2)CC1 when tested with 556581-035-R-J1-PDC spheroids with HUVEC/MSC, viability stands at 55

The observed viability, T/C for CC(C)(C)c1cnc(CSc2cnc(NC(=O)C3CCNCC3)s2)o1 + CCN1CCN(Cc2ccc(Nc3ncc(F)c(-c4cc(F)c5nc(C)n(C(C)C)c5c4)n3)nc2)CC1 when tested with 556581-035-R-J1-PDC spheroids with HUVEC/MSC, viability stands at 35.4

Values were extracted from PubChem BioAssay AID2060338.
